Measured values drawn from patent US12564583B2 for this set.

Biological target: thalidomide binding domain (TBD) of cereblon (Homo sapiens)
Sequence (Q96SW2 318-426 limits assumed): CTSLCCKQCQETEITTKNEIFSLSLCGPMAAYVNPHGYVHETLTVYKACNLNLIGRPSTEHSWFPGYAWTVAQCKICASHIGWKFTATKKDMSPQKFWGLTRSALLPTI
Assay: Cereblon binding (DSF, FP/FI)
Conditions: at 200 μM
observable: Cereblon Binding (≥50% inhibition at 200 μM)

Worked cases, answers included:
>>> print(df.to_string())
                                   compound  obs_value
0  O=C1CCC(N2CCc3ccc(O)cc3C2)C(=O)N1 (centres unmarked)       Yes*
1            O=c1ccn(CCCc2ccccc2)c(=O)[nH]1       Yes*
2               COc1ccc(C2=NNC(=O)CC2)cc1OC         No
3            O=C1CC[C@@H](C(=O)Nc2ccccc2)N1         No
4  CNc1ccccc1C(=O)NCCNC1CC(=O)NC1=O (centres unmarked)         No

Query: Need Cereblon Binding (≥50% inhibition at 200 μM), item O=C1CCC(NS(=O)(=O)c2ccc3c(c2)OCCCO3)C(=O)N1 (centres unmarked)
Result: Yes*

Query: Please answer likewise for O=C1CCC(N2CCc3ccccc3C2)C(=O)N1 (centres unmarked)
Result: Yes*

Query: // same read-out, input: Cc1ccc(N)c(C(=O)NCCn2ccc(=O)[nH]c2=O)c1
Result: Yes*

Query: What would you report for O=C1CC(N2C(=O)c3ccccc3C2=O)C(=O)N1 (centres unmarked) ?
Result: No

Query: Consider next the compound CNc1ccccc1C(=O)NCCn1cc(F)c(=O)[nH]c1=O in the same way.
Result: Yes*

====

Assay: Viability relative to DMSO
Format: cell-based
Design: concentration or dose not given beside the values
Mark Y only when viability stays strictly below 80%. Values equal to the cut-off are N.

                                   compound  cat
0  O=C1CCC(NCc2ccccn2)C(=O)N1 (stereo not shown)    N
1                             O=C1CCC(=O)N1    Y

Query: Please indicate whether the reported viability of O=c1ccn(CCCc2ccc(Cl)cc2)c(=O)[nH]1 is strictly below 80%.
Result: N

Query: And then CCNc1cccc(S(=O)(=O)NC2CCC(=O)NC2=O)c1 (stereo not shown) , what is it?
Result: N

Query: Check Nc1cccc(S(=O)(=O)NC2CCC(=O)NC2=O)c1 (stereo not shown) too.
Result: N

Query: Then this compound: O=C1CN(N2C(=O)c3cccc([N+](=O)[O-])c3C2=O)C(=O)N1
Result: N

Query: Moving on to the next compound: Nc1ccc2c(c1)CCN(C1CCC(=O)NC1=O)C2 (stereo not shown)
Result: N

Query: // same read-out, input: Nc1cc(Cl)ccc1C(=O)NCCn1ccc(=O)[nH]c1=O
Result: Y

Query: Next record, please: O=C1CCC(NCc2ccco2)C(=O)N1 (stereo not shown)
Result: N

Query: Now the same for Nc1ccc(Cl)cc1C(=O)NCCn1ccc(=O)[nH]c1=O
Result: Y

====

Test: Viability relative to DMSO
Format: cell-based
Set-up: concentration or dose not given beside the values
observable: viability
Please answer using a numeric value trailed by its unit.

In [3]: df
Out[3]:
                                   molecule  obs_value
0       Nc1cc(Cl)ccc1C(=O)NCCN1CCC(=O)NC1=O      78.7%
1  C=CCCCCCCCCC(=O)NC1CCC(=O)NC1=O (stereo not drawn)      82.3%

Then this molecule:
Query: Dear colleague, I am looking for the recorded viability of the following molecule: O=c1ccn(CCNS(=O)(=O)c2ccccc2)c(=O)[nH]1
Result: 77.8%
